Each entry below carries its reported AC50.
# System: Cytochrome P450 2C9 (Homo sapiens, UniProt P11712)
# Sequence (P11712 whole entry): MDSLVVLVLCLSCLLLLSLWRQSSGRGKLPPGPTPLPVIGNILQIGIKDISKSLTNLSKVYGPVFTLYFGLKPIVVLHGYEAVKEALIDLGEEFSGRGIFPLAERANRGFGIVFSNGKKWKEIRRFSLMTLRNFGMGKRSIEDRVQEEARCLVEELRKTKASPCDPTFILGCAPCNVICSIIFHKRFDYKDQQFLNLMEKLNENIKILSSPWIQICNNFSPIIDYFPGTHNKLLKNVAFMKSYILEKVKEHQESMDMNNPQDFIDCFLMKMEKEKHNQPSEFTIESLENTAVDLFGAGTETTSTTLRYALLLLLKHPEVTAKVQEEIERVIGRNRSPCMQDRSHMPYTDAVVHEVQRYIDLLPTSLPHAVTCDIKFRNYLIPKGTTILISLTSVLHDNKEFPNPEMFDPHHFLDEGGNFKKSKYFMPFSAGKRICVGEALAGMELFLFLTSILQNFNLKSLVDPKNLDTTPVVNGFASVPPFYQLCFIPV

Consider the worked cases shown below.
>  <Compound>
COc1cc(/C=N/NC(=O)c2cccnc2)ccc1OC(=O)c1ccco1

>  <System>
Cytochrome P450 2C9 (Homo sapiens, UniProt P11712)

>  <AC50>
28.2 µM (inconclusive)

$$$$
>  <Compound>
Sc1nc2cc(Cl)ccc2s1

>  <System>
Cytochrome P450 2C9 (Homo sapiens, UniProt P11712)

>  <AC50>
39.8 µM (inconclusive)

$$$$
>  <Compound>
Cn1cc(C(=O)c2cccc(Cl)c2Cl)cc1C(=O)O

>  <System>
Cytochrome P450 2C9 (Homo sapiens, UniProt P11712)

>  <AC50>
31.6 µM (inconclusive)

$$$$

Which AC50 value belongs to COc1cc(C2C(C#N)=C(N)OC3=C2C(=O)CCC3)cc(OC)c1OC(=O)N1CCOCC1 (stereo unspecified) ?
22.4 µM (inconclusive)

// repeat for `CN1CCN(c2ncc3nc(CCc4ccccc4)c(=O)n(C)c3n2)CC1` and report
39.8 µM (inconclusive)

Same read-out for `Cc1cc(C)cc(-n2c(C)cc(C=C(C#N)C#N)c2C)c1` ?
2.51 µM (inconclusive)

Can you check `O=C(CN1CCCCC1)Nc1nnc(-c2ccc([N+](=O)[O-])cc2)s1` next?
17.8 µM (inconclusive)

Same again, this time with `COc1ccc(NCc2nnc(SCc3ccccc3)n2-c2ccc(OC)cc2)cc1`
12.6 µM (inconclusive)

Also `Cc1ccc(C(=O)Oc2cc(C)n(C)c(=O)c2)cc1` ?
11.2 µM (inconclusive)

Try `Nc1nc(Cc2ccccc2)nc(Cc2ccccc2)c1-c1ccccc1` next.
3.16 µM (inconclusive)

And the next one, COc1ccc(C(=O)NC2CC3CCCC(C2)N3CC(C)C)cc1OC (stereo unspecified) ?
22.4 µM (inconclusive)
